experiment: in vivo; conditions: male, NODSCID 1L2RγKO, mouse, iv, total radioactivity, Lacrimal uptake
I'd appreciate it if you could supply tissue uptake at 1 h values for the items below.
# number only, unit %ID/g dropped from output

-- ask Returns the measured tissue uptake at 1 h for the input compound. Input: O=C(O)COC[C@H](NC(=O)N[C@@H](CCCCNC(=O)[C@H](Cc1c2ccccc2cc2ccccc12)NC(=O)[C@H]1CC[C@H](CNC(=O)CN2CCN(CC(=O)O)CCN(CC(=O)O)CCN(CC(=O)O)CC2)CC1)C(=O)O)C(=O)O [68Ga-HTK03187, metal not drawn]
-- reply 0.09

-- ask Continue with O=C(O)CCC[C@H](NC(=O)N[C@@H](CCCCNC(=O)[C@H](Cc1cccc(I)c1)NC(=O)[C@H]1CC[C@H](CNC(=O)CN2CCN(CC(=O)O)CCN(CC(=O)O)CCN(CC(=O)O)CC2)CC1)C(=O)O)C(=O)O [68Ga-HTK04053, metal not drawn]
-- reply 0.05

-- ask Continue with O=C(O)C[C@H](NC(=O)N[C@@H](CCCCNC(=O)[C@H](Cc1c2ccccc2cc2ccccc12)NC(=O)[C@H]1CC[C@H](CNC(=O)CN2CCN(CC(=O)O)CCN(CC(=O)O)CCN(CC(=O)O)CC2)CC1)C(=O)O)C(=O)O [68Ga-HTK03161, metal not drawn]
-- reply 0.12

-- ask Continue with O=C(O)CCC[C@H](NC(=O)N[C@@H](CCCCNC(=O)[C@H](Cc1c2ccccc2cc2ccccc12)NC(=O)Cc1cccc(CNC(=O)CN2CCN(CC(=O)O)CCN(CC(=O)O)CCN(CC(=O)O)CC2)c1)C(=O)O)C(=O)O [68Ga-HTK04037, metal not drawn]
-- reply 0.07

-- ask Continue with O=C(O)CC[C@H](NC(=O)N[C@@H](CCCCNC(=O)[C@H](Cc1c2ccccc2cc2ccccc12)NC(=O)[C@H]1CC[C@H](CNC(=O)CN2CCN(CC(=O)O)CCN(CC(=O)O)CCN(CC(=O)O)CC2)CC1)C(=O)O)C(=O)O [68Ga-HTK03041, metal not drawn]
-- reply 2.44

-- ask Continue with O=C(O)CN1CCN(CC(=O)O)CCN(CC(=O)NC[C@H]2CC[C@H](C(=O)N[C@@H](Cc3c4ccccc4cc4ccccc34)C(=O)NCCCC[C@H](NC(=O)N[C@@H](C[C@@H](F)C(=O)O)C(=O)O)C(=O)O)CC2)CCN(CC(=O)O)CC1 [68Ga-HTK04033, metal not drawn]
-- reply 0.04

-- ask Continue with O=C(O)CCC[C@H](NC(=O)N[C@@H](CCCCNC(=O)[C@H](Cc1c2ccccc2cc2ccccc12)NC(=O)Cc1ccc(CNC(=O)CN2CCN(CC(=O)O)CCN(CC(=O)O)CCN(CC(=O)O)CC2)cc1)C(=O)O)C(=O)O [68Ga-HTK04036, metal not drawn]
-- reply 0.06

-- ask Continue with O=C(O)CN1CCN(CC(=O)O)CCN(CC(=O)NC[C@H]2CC[C@H](C(=O)N[C@@H](Cc3c4ccccc4cc4ccccc34)C(=O)NCCCC[C@H](NC(=O)N[C@@H](C[C@H](F)C(=O)O)C(=O)O)C(=O)O)CC2)CCN(CC(=O)O)CC1 [68Ga-HTK04040, metal not drawn]
-- reply 0.06

-- ask Continue with O=C(O)CSC[C@H](NC(=O)N[C@@H](CCCCNC(=O)[C@H](Cc1c2ccccc2cc2ccccc12)NC(=O)[C@H]1CC[C@H](CNC(=O)CN2CCN(CC(=O)O)CCN(CC(=O)O)CCN(CC(=O)O)CC2)CC1)C(=O)O)C(=O)O [68Ga-HTK03177, metal not drawn]
-- reply 0.12
